Measured values drawn from patent US11472798B2 for this set.

Items are presented alongside their recorded pIC50.
Target sequence: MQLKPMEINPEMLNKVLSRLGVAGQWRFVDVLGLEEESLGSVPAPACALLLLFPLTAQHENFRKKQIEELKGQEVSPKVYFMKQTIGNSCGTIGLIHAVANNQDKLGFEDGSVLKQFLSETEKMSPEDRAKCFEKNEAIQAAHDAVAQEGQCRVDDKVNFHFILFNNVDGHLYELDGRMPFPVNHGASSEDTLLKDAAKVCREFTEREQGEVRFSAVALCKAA
pIC50: −log10 of the molar value.

Below: 5 compounds and their reported pIC50.
[
  {
    "Compound": "N#Cc1ccc(OC2COC2)cc1-n1cnc(NC(=O)[C@H]2CCN(C#N)C2)c1 [Example 250]",
    "Result": "> 6.00"
  },
  {
    "Compound": "COC[C@H]1CCCN1Cc1cnc(NC(=O)[C@H]2CCN(C#N)C2)s1 [Example 143]",
    "Result": "5.00 to 6.00"
  },
  {
    "Compound": "N#Cc1ccc(O[C@H]2CCOC2)cc1-n1cnc(NC(=O)[C@H]2CCN(C#N)C2)c1 [Example 248]",
    "Result": "5.00 to 6.00"
  },
  {
    "Compound": "N#CN1CC[C@H](C(=O)Nc2cn(CC3CCOCC3)cn2)C1 [Example 165]",
    "Result": "5.00 to 6.00"
  },
  {
    "Compound": "N#CN1CC[C@H](C(=O)Nc2cc(-c3cccc4[nH]ncc34)ccn2)C1 [Example 262]",
    "Result": "> 6.00"
  }
]

-- ask For N#Cc1ccc(-n2cnc(NC(=O)[C@H]3CCN(C#N)C3)c2)cc1C1CC1 [Example 304] , what is its reported pIC50?
-- reply > 6.00

-- ask For COC[C@H]1CCCN1c1cnc(NC(=O)[C@H]2CCN(C#N)C2)s1 [Example 99] , what is its reported pIC50?
-- reply > 6.00

-- ask For N#CN1CC[C@H](C(=O)Nc2ccc3cccnc3n2)C1 [Example 56] , what is its reported pIC50?
-- reply 4.52 to 5.00

-- ask For N#CN1CC[C@H](C(=O)Nc2cc(-c3ccnc(N)c3)ccn2)C1 [Example 258] , what is its reported pIC50?
-- reply 5.00 to 6.00

====

Items are presented alongside their recorded IC50.
Assay System: UCHL1 (Homo sapiens)
Sequence (P09936 1-223): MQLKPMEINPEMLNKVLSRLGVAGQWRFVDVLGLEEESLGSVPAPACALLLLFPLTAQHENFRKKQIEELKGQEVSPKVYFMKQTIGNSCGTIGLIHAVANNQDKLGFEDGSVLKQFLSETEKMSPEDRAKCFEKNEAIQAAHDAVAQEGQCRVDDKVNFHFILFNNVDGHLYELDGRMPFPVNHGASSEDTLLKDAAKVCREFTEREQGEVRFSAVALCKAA

[
  {
    "Compound": "N#CN1CCC(C(=O)Nc2ccc(N3CCCCC3)cn2)C1 (centres unmarked)",
    "Property Name": "IC50",
    "Result": "1000 to 10000 nM"
  },
  {
    "Compound": "CNC(=O)c1ccc(-n2cnc(NC(=O)[C@H]3CCN(C#N)C3)c2)cc1",
    "Property Name": "IC50",
    "Result": "< 1000 nM"
  },
  {
    "Compound": "N#CN1CCC(C(=O)Nc2ccc(N3CCOCC3)cn2)C1 (centres unmarked)",
    "Property Name": "IC50",
    "Result": "1000 to 10000 nM"
  },
  {
    "Compound": "N#CN1CC[C@H](C(=O)Nc2cn(Cc3ccccn3)cn2)C1",
    "Property Name": "IC50",
    "Result": "< 1000 nM"
  },
  {
    "Compound": "N#CN1CCC(C(=O)Nc2ccc(-c3ccccn3)cn2)C1 (centres unmarked)",
    "Property Name": "IC50",
    "Result": "1000 to 10000 nM"
  },
  {
    "Compound": "Cc1nccc(-n2cnc(NC(=O)[C@H]3CCN(C#N)C3)c2)n1",
    "Property Name": "IC50",
    "Result": "1000 to 10000 nM"
  }
]

-- ask For Cn1cccc(C(=O)N2CCc3nc(NC(=O)[C@H]4CCN(C#N)C4)sc3C2)c1=O , what is its reported IC50?
-- reply < 1000 nM

-- ask For N#CN1CC[C@H](C(=O)Nc2ncc(N3CCCCC3)s2)C1 , what is its reported IC50?
-- reply < 1000 nM

-- ask For COC[C@@H]1CCCN1c1cnc(NC(=O)[C@H]2CCN(C#N)C2)s1 , what is its reported IC50?
-- reply < 1000 nM

====

Items are presented alongside their recorded IC50.
Sequence of the target: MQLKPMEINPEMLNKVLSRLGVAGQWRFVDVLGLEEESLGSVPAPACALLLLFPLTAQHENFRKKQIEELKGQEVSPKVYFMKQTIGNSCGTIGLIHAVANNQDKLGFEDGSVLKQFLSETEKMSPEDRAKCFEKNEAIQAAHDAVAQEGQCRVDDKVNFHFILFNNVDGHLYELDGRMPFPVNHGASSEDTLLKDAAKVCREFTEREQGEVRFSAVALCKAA

Below: 5 compounds and their reported IC50.
[
  {
    "Compound": "N#CN1CC[C@H](C(=O)Nc2cc(-c3cn[nH]c3)ccn2)C1 [Example 291]",
    "IC50": "1000 to 10000 nM"
  },
  {
    "Compound": "N#CN1CC[C@H](C(=O)Nc2cc(-c3ccnc4nccn34)ccn2)C1 [Example 252]",
    "IC50": "1000 to 10000 nM"
  },
  {
    "Compound": "Cc1noc(C)c1-c1ccc2nc(NC(=O)[C@@H]3CN(C#N)C[C@H]3C(F)(F)F)cn2c1 (racemic) [Example 210]",
    "IC50": "< 1000 nM"
  },
  {
    "Compound": "N#Cc1ccc(OCCCN2CCOCC2)cc1-n1cnc(NC(=O)[C@H]2CCN(C#N)C2)c1 [Example 246]",
    "IC50": "< 1000 nM"
  },
  {
    "Compound": "CNC(=O)c1cccc(-c2cnc(NC(=O)[C@H]3CCN(C#N)C3)s2)n1 [Example 224]",
    "IC50": "< 1000 nM"
  }
]

-- ask For N#CN1CCC(C(=O)Nc2ccccn2)C1 (stereo not drawn) [Example 24] , what is its reported IC50?
-- reply 10000 to 30000 nM

-- ask For N#CN1CC[C@H](C(=O)Nc2ncc(-c3cccc(-n4cccn4)c3)s2)C1 [Example 218] , what is its reported IC50?
-- reply < 1000 nM

-- ask For CC1CC(C(=O)Nc2cc(-c3ccccc3)[nH]n2)CN1C#N (mixture of isomers) [Example 90] , what is its reported IC50?
-- reply 10000 to 30000 nM

-- ask For N#CN1CC[C@H](C(=O)Nc2cc(-c3ccncc3)ncn2)C1 [Example 274] , what is its reported IC50?
-- reply 1000 to 10000 nM

-- ask For N#CN1CC[C@H](C(=O)Nc2cc(C3CCOCC3)[nH]n2)C1 [Example 43] , what is its reported IC50?
-- reply < 1000 nM

-- ask For CC(c1ccccc1)N(C)S(=O)(=O)c1ccc(NC(=O)[C@H]2CCN(C#N)C2)nc1 (stereo partly drawn) [Example 208] , what is its reported IC50?
-- reply < 1000 nM

====

Target protein (sequence): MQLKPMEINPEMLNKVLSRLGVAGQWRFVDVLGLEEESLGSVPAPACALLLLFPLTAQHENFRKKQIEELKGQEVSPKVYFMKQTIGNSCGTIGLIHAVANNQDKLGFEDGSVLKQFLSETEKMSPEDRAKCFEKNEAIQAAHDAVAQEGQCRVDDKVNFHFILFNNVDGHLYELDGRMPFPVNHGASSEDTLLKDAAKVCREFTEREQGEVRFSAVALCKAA
Property Name: IC50

Below: 5 compounds and their reported IC50.
[
  {
    "Compound": "N#Cc1ccc(-c2cnc(NC(=O)[C@H]3CCN(C#N)C3)s2)cc1OC(F)(F)F",
    "Property Name": "IC50",
    "Result": "< 1000 nM"
  },
  {
    "Compound": "CC(C)Cn1cnc(NC(=O)[C@H]2CCN(C#N)C2)c1",
    "Property Name": "IC50",
    "Result": "1000 to 10000 nM"
  },
  {
    "Compound": "N#CN1CC[C@H](C(=O)Nc2cc(N3CCCC3)ccn2)C1",
    "Property Name": "IC50",
    "Result": "1000 to 10000 nM"
  },
  {
    "Compound": "N#CN1CC[C@H](C(=O)Nc2cn(C3CCc4ccccc43)cn2)C1 (stereo partly shown)",
    "Property Name": "IC50",
    "Result": "< 1000 nM"
  },
  {
    "Compound": "N#CN1CC[C@H](C(=O)Nc2cc(-c3cccc4nccn34)ccn2)C1",
    "Property Name": "IC50",
    "Result": "< 1000 nM"
  }
]

-- ask For N#CN1CC[C@H](C(=O)Nc2cc(-c3ccccc3)cnn2)C1 , what is its reported IC50?
-- reply 1000 to 10000 nM

-- ask For C[C@@H]1CN(C#N)C[C@H]1C(=O)Nc1ncc(-c2ccccc2Cl)s1 (racemic) , what is its reported IC50?
-- reply 1000 to 10000 nM

-- ask For N#CN1CC[C@H](C(=O)Nc2ncc(C3CCOCC3)s2)C1 , what is its reported IC50?
-- reply < 1000 nM

-- ask For Cc1noc(C)c1-c1cnc2nc(NC(=O)[C@H]3CCN(C#N)C3)sc2c1 , what is its reported IC50?
-- reply 1000 to 10000 nM

-- ask For N#CN1CC[C@H](C(=O)Nc2cc3n(n2)CCN(Cc2ccccc2)C3)C1 , what is its reported IC50?
-- reply < 1000 nM
